- Target desc: recombinant soluble homotrimeric HA of A/Anhui/1/05 (H5N1) (Influenza A virus A/Anhui/1/2005(H5N1))
- Procedure details: HA microarray, BCC supernatant
- Setup conditions: remark: other sources report otherwise
Measured attribute: Trimeric HA Binding: RLU (RLU)
Answer with a number only, understood to be in RLU.

GET /values?readout=Trimeric HA Binding: RLU&item= TCN-563 (5237_B21) (antibody, V domains shown) VH: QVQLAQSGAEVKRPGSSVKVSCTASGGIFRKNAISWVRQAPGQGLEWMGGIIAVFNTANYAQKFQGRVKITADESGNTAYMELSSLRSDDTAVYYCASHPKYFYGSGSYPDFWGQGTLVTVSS VL: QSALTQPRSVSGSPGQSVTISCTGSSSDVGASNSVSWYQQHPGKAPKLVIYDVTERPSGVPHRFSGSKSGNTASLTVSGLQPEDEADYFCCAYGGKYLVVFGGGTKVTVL
9580

Any idea what Trimeric HA Binding: RLU was measured for TCN-539 (5056_A08) (antibody, V domains shown) VH: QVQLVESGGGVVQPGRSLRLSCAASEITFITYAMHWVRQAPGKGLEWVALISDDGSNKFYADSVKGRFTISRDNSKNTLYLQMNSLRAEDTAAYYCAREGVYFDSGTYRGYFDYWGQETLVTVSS VL: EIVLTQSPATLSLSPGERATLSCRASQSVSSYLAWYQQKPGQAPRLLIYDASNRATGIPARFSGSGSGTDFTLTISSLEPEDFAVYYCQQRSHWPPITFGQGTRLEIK ?
91
